Data provenance is ChEMBL document CHEMBL5149986.

# System: MES-SA
# ASSAY_PROCEDURE: Cytotoxicity against human MES-SA cells assessed as inhibition in cell growth
# Type: functional, cell-based
Square brackets hold non-standard residues; d marks the D form. Peptide text beside a SMILES is read from it. * marks the point of attachment. Dolaproine = CO[C@@H]([C@@H]1CCCN1)[C@@H](C)C(=O)O; Dil = CC[C@H](C)[C@H](NC)[C@@H](CC(=O)O)OC; X1 = C[C@@H](N*)[C@@H](O)c1ccccc1; NMeV = CN[C@H](C(=O)O)C(C)C
Consider the following molecules; for each one, report its pIC50.
# pIC50 = -log10(concentration in molar units)

Q) Which pIC50 value is on record for CC(=O)O[C@@H](C)/C=C\C(=O)N[C@@H]1C[C@H](C)[C@H](C/C=C(C)/C=C/[C@H]2O[C@H](CCNC(=O)OC(C)(C)C)C[C@@]3(CO3)[C@@H]2O)O[C@@H]1C ?
A) 9.89

Q) Try the molecule CC(/C=C/[C@H]1O[C@H](C)C[C@@]2(CO2)[C@@H]1O)=C\C[C@@H]1O[C@H](C)[C@H](NC(=O)/C=C\[C@H](C)OC(=O)N2CCOCC2)C[C@@H]1C
A) 9.42

Q) And the next one, CCOC(=O)/C=C/C[C@@H]1C[C@@]2(CO2)[C@H](O)[C@@H](/C=C/C(C)=C/C[C@@H]2O[C@H](C)[C@H](NC(=O)/C=C\[C@H](C)OC(=O)C(C)C)C[C@@H]2C)O1 ?
A) 8.53

Q) Same read-out for CC(/C=C/[C@H]1O[C@H](C)C[C@@]2(CO2)[C@@H]1O)=C\C[C@@H]1O[C@H](C)[C@H](NC(=O)/C=C\[C@H](C)NC(=O)C(C)C)C[C@@H]1C ?
A) 9.64

Q) Can you handle CC[C@H](C)[C@@H]([C@@H](CC(=O)N1CCC[C@H]1[C@H](OC)[C@@H](C)C(=O)N[C@H](C)[C@@H](O)c1ccccc1)OC)N(C)C(=O)[C@@H](NC(=O)[C@@H](NC)C(C)C)C(C)C (H-[NMeV]V[Dil][Dolaproine]-X1) next?
A) 10.02

Q) Next up: CO[C@@H]1C[C@@]2(CO2)[C@H](O)[C@@H](/C=C/C(C)=C/C[C@@H]2O[C@H](C)[C@H](NC(=O)/C=C\[C@H](C)OC(=O)N(C)CCO)C[C@@H]2C)O1
A) 9.20

Q) Lookup CC(/C=C/[C@H]1O[C@H](C)C[C@@]2(CO2)[C@@H]1O)=C\C[C@@H]1O[C@H](C)[C@H](NC(=O)/C=C\[C@H](C)NC(=O)N(C)C)C[C@@H]1C
A) 8.71

Q) What do you have for CO[C@@H]1C[C@@]2(CO2)[C@H](OC(C)=O)[C@@H](/C=C/C(C)=C/C[C@@H]2O[C@H](C)[C@H](NC(=O)/C=C\[C@H](C)OC(C)=O)C[C@@H]2C)O1 ?
A) 8.75

Q) Another molecule: CO[C@@H]1C[C@@]2(CO2)[C@H](O)[C@@H](/C=C/C(C)=C/C[C@@H]2O[C@H](C)[C@H](NC(=O)/C=C\[C@H](C)OC(=O)N3CCOCC3)C[C@@H]2C)O1
A) 9.31

Q) Now consider CC(/C=C/[C@H]1O[C@H](CC(=O)NCCC(=O)O)C[C@@]2(CO2)[C@@H]1O)=C\C[C@@H]1O[C@H](C)[C@H](NC(=O)/C=C\[C@H](C)OC(=O)C(C)C)C[C@@H]1C and answer again.
A) 8.34

Q) Then this molecule: CC(=O)O[C@@H](C)/C=C\C(=O)N[C@@H]1C[C@H](C)[C@H](C/C=C(C)/C=C/[C@H]2O[C@H](C)C[C@@]3(CO3)[C@@H]2O)O[C@@H]1C
A) 9.26

Q) Next molecule up: CC(=O)O[C@@H](C)/C=C\C(=O)N[C@@H]1C[C@H](C)[C@H](C/C=C(C)/C=C/[C@H]2O[C@H](CCN=[N+]=[N-])C[C@@]3(CO3)[C@@H]2O)O[C@@H]1C
A) 8.97

Q) What do you have for CC(=O)O[C@H]1C(=O)[C@@]2(C)[C@H]([C@H](OC(=O)c3ccccc3)[C@]3(O)C[C@H](OC(=O)[C@H](O)[C@@H](NC(=O)c4ccccc4)c4ccccc4)C(C)=C1C3(C)C)[C@]1(OC(C)=O)CO[C@@H]1C[C@@H]2O ?
A) 8.61

Q) Also CC(/C=C/[C@H]1O[C@H](C)C[C@@]2(CO2)[C@@H]1O)=C\C[C@@H]1O[C@H](C)[C@H](NC(=O)/C=C\[C@H](C)NC(=O)N2CCCCC2)C[C@@H]1C , if possible.
A) 8.50

Q) Moving on to the next molecule: CC(=O)O[C@@H](C)/C=C\C(=O)N[C@@H]1C[C@H](C)[C@H](C/C=C(C)/C=C/[C@H]2O[C@H](CC(C)(C)O)C[C@@]3(CO3)[C@@H]2O)O[C@@H]1C
A) 9.19

Q) Try this molecule next: CC(/C=C/[C@H]1O[C@H](C)C[C@@]2(CO2)[C@@H]1O)=C\C[C@@H]1O[C@H](C)[C@H](NC(=O)/C=C\[C@H](C)OC(=O)N(C)C)C[C@@H]1C
A) 10.40

Q) Would you mind doing CO[C@@H]1C[C@@]2(CO2)[C@H](O)[C@@H](/C=C/C(C)=C/C[C@@H]2O[C@H](C)[C@H](NC(=O)/C=C\[C@H](C)OC(=O)N3CCCCC3)C[C@@H]2C)O1 as well?
A) 8.43

Q) Follow-up item: CC(/C=C/[C@H]1O[C@H](C)C[C@@]2(CO2)[C@@H]1O)=C\C[C@@H]1O[C@H](C)[C@H](NC(=O)/C=C\[C@H](C)NC(=O)N2CCOCC2)C[C@@H]1C
A) 8.54

Q) Further, for CC(=O)O[C@@H](C)/C=C\C(=O)N[C@@H]1C[C@H](C)[C@H](C/C=C(C)/C=C/[C@H]2O[C@H](CC(=O)O)C[C@@](O)(CCl)[C@@H]2O)O[C@@H]1C ?
A) 6.07

Q) Then what about the molecule CC(=O)O[C@@H](C)/C=C\C(=O)N[C@@H]1C[C@H](C)[C@H](C/C=C(C)/C=C/[C@H]2O[C@H](CCO)C[C@@]3(CO3)[C@@H]2O)O[C@@H]1C ?
A) 10.14

Q) Next entry: CC(/C=C/[C@H]1O[C@H](CC(=O)OC(C)(C)C)C[C@@]2(CO2)[C@@H]1O)=C\C[C@@H]1O[C@H](C)[C@H](NC(=O)/C=C\[C@H](C)OC(=O)C(C)C)C[C@@H]1C
A) 7.95
